Molecular target: hFZD7 CRD-Fc (human, UniProt O75084 33-185)
Experiment: spot phage ELISA
In this section we review reported S/W values for a set of binders.
// no unit, no text: just the number

1. AASDDLEAWCHVMY [SEQ ID NO 70]
3.1

Entry under test: APADDLEFWCHVMY [SEQ ID NO 72] . Its S/W was 3

Lab book: S/W of LPADDLAFWCDVMY [SEQ ID NO 92] noted as 2.8

Per the record, VASDDLASWCHAMY [SEQ ID NO 62] has S/W of 3

# S/W of AASDDLAFWCHVMY [SEQ ID NO 77] = 3.1

Entry AAADDLAFWCHVMY [SEQ ID NO 80] — recorded S/W = 3.1
